# system.tested: FIR RRM1-2 Y115F (UniProt Q9UHX1-2 101-293, Y115F)
# Sequence (Q9UHX1 118-310 Y132F): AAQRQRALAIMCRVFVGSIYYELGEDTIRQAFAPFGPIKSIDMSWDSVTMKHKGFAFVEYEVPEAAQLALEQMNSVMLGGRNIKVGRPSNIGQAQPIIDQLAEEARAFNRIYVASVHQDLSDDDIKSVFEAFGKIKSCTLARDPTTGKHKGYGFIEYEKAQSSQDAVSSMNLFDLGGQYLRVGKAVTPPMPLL
# experiment: ITC; ITC: 25 mM HEPES pH 7.5, 150 mM NaCl, 0.5 mM TCEP, 20 C; protein 160-240 uM titrated into ssDNA 40-50 uM
# assay.setup: protein: recombinant; tags: N-terminal His6, removed by TEV; single strand
pKd: −log10 of the molar value.
parameter.measured: pKd

Requested field: pKd. Item: TAATTTT (ssDNA) ~5.22
